Each entry below lists one item and its recorded Mean % WT Binding value.
- Target: human CD33 R69A (human, UniProt P20138 18-364)
- Sequence (P20138 18-364 R69A limits assumed): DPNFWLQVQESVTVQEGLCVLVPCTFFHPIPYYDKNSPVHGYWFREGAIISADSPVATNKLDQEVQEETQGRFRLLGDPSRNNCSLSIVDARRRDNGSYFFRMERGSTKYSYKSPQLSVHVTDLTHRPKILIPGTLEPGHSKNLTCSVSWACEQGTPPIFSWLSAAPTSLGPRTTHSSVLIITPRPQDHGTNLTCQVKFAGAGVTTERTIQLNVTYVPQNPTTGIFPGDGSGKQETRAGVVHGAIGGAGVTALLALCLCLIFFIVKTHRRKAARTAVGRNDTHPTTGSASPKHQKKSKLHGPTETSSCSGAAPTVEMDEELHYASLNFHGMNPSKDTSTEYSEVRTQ
- Protocol: alanine scan, flow cytometry;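 also: HEK293-T cells transiently expressing single-residue alanine mutants of CD33 (alanine swapped to serine), antibody binding read by fluorescence in duplicate, background-subtracted, expressed relative to wild-type CD33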
Property Label: Mean % WT Binding

Binder	Assay Result
Refmab #1 (antibody, V domains shown, Full-length format is human IgG1 (Absolute Antibody Ab00283-10.0); The alanine scan used IgG or Fab; also called hP67.6) VH: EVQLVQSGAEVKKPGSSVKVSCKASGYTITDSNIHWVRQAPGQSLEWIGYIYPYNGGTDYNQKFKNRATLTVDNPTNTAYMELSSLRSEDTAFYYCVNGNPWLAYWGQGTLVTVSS VL: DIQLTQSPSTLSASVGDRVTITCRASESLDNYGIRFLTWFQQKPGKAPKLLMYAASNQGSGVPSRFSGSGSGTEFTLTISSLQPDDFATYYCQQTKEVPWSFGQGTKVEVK	94.2 % WT
Refmab #3 (antibody, V domains shown, Full-length format is human IgG1 Fc silent (PG-LALA); The alanine scan used IgG or Fab) VH: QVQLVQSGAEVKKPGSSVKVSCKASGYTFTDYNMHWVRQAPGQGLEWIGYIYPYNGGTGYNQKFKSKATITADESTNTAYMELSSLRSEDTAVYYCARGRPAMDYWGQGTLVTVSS VL: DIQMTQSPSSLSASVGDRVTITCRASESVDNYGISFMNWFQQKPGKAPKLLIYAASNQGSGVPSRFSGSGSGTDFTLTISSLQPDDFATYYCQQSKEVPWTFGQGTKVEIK	188 % WT
Refmab #4 (antibody, V domains shown, Full-length format is human IgG1 Fc silent (PG-LALA); The alanine scan used IgG or Fab) VH: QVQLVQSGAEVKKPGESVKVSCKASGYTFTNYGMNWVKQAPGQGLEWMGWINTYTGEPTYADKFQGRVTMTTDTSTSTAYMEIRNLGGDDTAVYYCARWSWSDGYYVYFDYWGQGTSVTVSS VL: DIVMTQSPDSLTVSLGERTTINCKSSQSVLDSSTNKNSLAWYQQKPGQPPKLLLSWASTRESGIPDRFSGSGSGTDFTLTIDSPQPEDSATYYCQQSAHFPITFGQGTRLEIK	118 % WT
